These entries and their values trace back to ChEMBL document CHEMBL1201862.

tested on: K562; assay: NCI tumour cell line growth inhibition, 48 h
Activity calls are given as the source filed them. No stated cut-off is given here; in the data, active = GI50 up to about 1.1 µM and inactive = higher.
Property: GI50; scope: individual compounds

Recorded GI50, per entry:
CCCCCCCC(=O)OC[n+]1cccc(-c2c(COC(=O)NC(C)C)c(COC(=O)NC(C)C)c3n2CCC3)c1: 83.6 µM (inactive)
C/C(=N\c1cc(Cl)cc(Cl)c1)c1ccncc1: > 100 µM (inactive)
Cc1ccc(/N=N/c2c(O)c(C(=O)O)cc3ccccc23)c(S(=O)(=O)O)c1: > 100 µM (inactive)
CC1CC2=C(C1)C(C1(C)C(=O)CC3C(C1=O)C3(C)C)C(C)C2=O (stereo not drawn): > 100 µM (inactive)
c1ccc2c(c1)N=C(c1ccc3ccccc3c1)CC(c1cccc3ccccc13)S2 (stereo not drawn): 17.2 µM (inactive)
CC1OC(OC2C(O[C@@H]3C[C@@H]4CC[C@@H]5[C@H](CC[C@]6(C)[C@@H]7[C@H](C[C@@H]56)O[C@]5(CC[C@@H](C)CO5)[C@H]7C)[C@@]4(C)C[C@H]3O)OC(CO)C(OC3OC(CO)C(O)C(O)C3O)C2O)C(O)C(O)C1O (stereo partly drawn): 5.92 µM (inactive)
O=C1N/C(=N/N=C/C(O)C(O)C(O)CO)N/C1=C\c1ccco1 (stereo not drawn): > 100 µM (inactive)

# ---- query compound ----
# input Return reported GI50; argument: CCCCC#C[I+]c1ccccc1
# output 15.2 µM (inactive)

---

Property: GI50; scope: individual compounds
test system: OVCAR-4; experiment: NCI tumour cell line growth inhibition, 48 h
Activity calls are given as the source filed them. Cut-off read from the data, not from the text of the source: active = GI50 up to about 1.1 µM and inactive = higher.

COc1cc(OC)c(/C=N/N=C(\N)NO)c(OC)c1: > 100 µM (inactive)
O=S(=O)(Nc1nc2ccccc2nc1Nc1ccc2ccccc2c1)c1ccccc1: 4.67 µM (inactive)

# ---- query compound ----
# input Return reported GI50; argument: Cc1ccc(C2(c3ccc(Cl)cc3)c3ccccc3C3=NCCN32)cc1 (stereo not drawn)
# output 1.83 µM (inactive)

---

tested on: SN12C; assay: NCI tumour cell line growth inhibition, 48 h
Active and inactive are the calls of the source. Cut-off read from the data, not from the text of the source: active = GI50 up to about 1.1 µM and inactive = higher.
Permitted responses: 1 (yes) for active, 0 (no) for inactive

For orientation, consider the following solved cases.
O=c1[nH]cc(COCC(F)(F)C(F)(F)C(F)(F)C(F)F)c(=O)[nH]1: 0 (no)
C[N+]1(C)C2Cc3ccccc3C1Cc1ccccc12: 0 (no)
COc1ccc(-c2nc(O)c3ccccc3n2)cc1: 0 (no)
CC(=O)OC(OC(C)=O)c1c2ccccc2cc2ccccc12: 0 (no)
CC1CC2OC(=O)C3CC(O)CC(=C23)[C@@]12C[C@@H](c1ccoc1)OC2=O (some centres undefined): 0 (no)

# input What was the test verdict on CCSc1nc(C)nc2c1sc1nc3ccccc3n12 ?
# output 0 (no)

---

Property: GI50; scope: individual compounds
system: KM12; experiment: NCI tumour cell line growth inhibition, 48 h
Activity calls are given as the source filed them. Cut-off read from the data, not from the text of the source: active = GI50 up to about 1.1 µM and inactive = higher.

Cc1[nH]n(-c2nc(-c3ccccc3)cc(=O)[nH]2)c(=O)c1CCO: > 100 µM (inactive)
CC(=O)Nc1ccccc1S(=O)(=O)c1c(-c2c(C)c(Cl)c(C)c(Cl)c2C)noc1C: > 100 µM (inactive)
Cc1nc(Nc2ccccc2)sc1C(=O)NNC(N)=O: > 100 µM (inactive)
Oc1ccc(SCc2cc(O)ccc2O)cc1: 17.5 µM (inactive)
CCCCc1c2c(nc3c1CCCC3=O)CCCC2: > 100 µM (inactive)
Cc1ccc(/N=N/c2c(O)c(C(=O)O)cc3ccccc23)c(S(=O)(=O)O)c1: > 100 µM (inactive)

# input Find the measured GI50: item CSc1nc(SC)c2c(C)cn(COCCOC(=O)c3ccccc3)c2n1 , target or system KM12.
# output > 100 µM (inactive)

# input Find the measured GI50: item COc1ccc(/C=C2\CCC(CCN3CCOCC3)C2=O)cc1 (centres undefined) , target or system KM12.
# output > 100 µM (inactive)

# input Find the measured GI50: item Cc1c(C)c2c(c(N)c1C#N)C(=O)N(NC(=S)Nc1ccccc1)C2=O , target or system KM12.
# output 91.4 µM (inactive)

---

Property: GI50; scope: individual compounds
test system: UO-31; experiment: NCI tumour cell line growth inhibition, 48 h
Activity calls are given as the source filed them. Cut-off read from the data, not from the text of the source: active = GI50 up to about 1.1 µM and inactive = higher.

Cn1c(=O)n2c(-c3ccccc3)c(-c3ccccc3)n2c1=O: 82 µM (inactive)

# input Find the measured GI50: item O=S(=O)(Nc1nc2ccccc2nc1Nc1ccc2ccccc2c1)c1ccccc1 , target or system UO-31.
# output 3.61 µM (inactive)

# input Find the measured GI50: item Cc1cccc2c1Oc1cc(Cl)ccc1C2NC(=O)CN(C)C (stereo unspecified) , target or system UO-31.
# output 28.8 µM (inactive)

---

test system: HCT-116; test: NCI tumour cell line growth inhibition, 48 h
The source made the active and inactive calls. Cut-off read from the data, not from the text of the source: active = GI50 up to about 1.1 µM and inactive = higher.
quantity_name: GI50

CC1=C(C(=O)Nc2ccccc2)C2(CCCCC2)C(C#N)=C(SCC(=O)Nc2ccc(Br)cc2)N1: 2.51 µM (inactive)
C=C1CCCC2OC(OC)CCC12 (stereo unspecified): > 100 µM (inactive)
O=C(O)c1cscc1Cc1cccs1: > 100 µM (inactive)
Cc1ccc(C2(c3ccc(Cl)cc3)c3ccccc3C3=NCCN32)cc1 (stereo unspecified): 2.19 µM (inactive)
O=C(CN1c2ccccc2Sc2ccccc21)n1cnc2ccccc21: > 100 µM (inactive)

# ---- query compound ----
# input Return reported GI50; argument: COC(=O)[C@H]1C=NN[C@@H]1C(=O)N1[C@H]2CC3CC[C@@]2(CS1(=O)=O)C3(C)C
# output > 100 µM (inactive)

---

system: OVCAR-8; experiment: NCI tumour cell line growth inhibition, 48 h
Active and inactive are the calls of the source. Cut-off read from the data, not from the text of the source: active = GI50 up to about 1.1 µM and inactive = higher.
Permitted responses: active, inactive

Cc1oc2nc(N(C)C)nc(Cl)c2c1C: inactive
Cc1c(-c2ccc(-c3ccccc3F)cc2)nc2ccc(F)cc2c1C(=O)O [BREQUINAR SODIUM]: active
CC1OC(OC2C(O[C@H]3CC[C@@]4(C)C(=CC[C@H]5[C@@H]6C[C@@H]7O[C@]8(CC[C@@H](CO)CO8)[C@@H](C)[C@@H]7[C@@]6(C)CC[C@@H]54)C3)OC(CO)C(O)C2OC2OC(CO)C(O)C(O)C2O)C(O)C(O)C1O (stereo partly drawn): inactive

# input What was the test verdict on O=C1CSC(Cc2nc3ccccc3[nH]2)=N1 ?
# output inactive

# input What was the test verdict on COc1ccc(NC(=O)C2C(=O)N(c3ccc(OC)cc3)C(=O)/C2=N\N)cc1 (stereo not drawn) ?
# output inactive

# input What was the test verdict on C=C1CCc2occ(C)c2C2C1C1=C(CC(C)C1=O)C1OC12C (stereo not drawn) ?
# output inactive

# input What was the test verdict on COc1ccc2c(c1)c1c(n2CCN2CCOCC2)-c2ccccc2CC1 ?
# output inactive

# input What was the test verdict on O=C(CCCN1CCC2(CC1)OC(=O)N(c1ccccc1)C2=O)c1ccccc1 ?
# output inactive

---

system: DU-145; assay: NCI tumour cell line growth inhibition, 48 h
The source made the active and inactive calls. Rule as the data show it: active = GI50 up to about 1.1 µM and inactive = higher.
Permitted responses: 1 = active, -1 = inactive

For orientation, consider the following solved cases.
COC(=O)[C@H]1C=NN[C@@H]1C(=O)N1[C@H]2CC3CC[C@@]2(CS1(=O)=O)C3(C)C: -1
CCOC(=O)c1c(N2CCCC2)ncn(-c2ccccc2)c1=S: -1
Cc1ccc(/N=N/c2c(O)c(C(=O)O)cc3ccccc23)c(S(=O)(=O)O)c1: -1
CO/N=C(\C)c1cccc(Nc2nc3ccccc3c3occc23)c1: -1
COC(=O)C1=C(C(=O)OC)SC2(S1)C(C(=O)OC)=C(C(=O)OC)Sc1c2ss/c1=N\c1ccc(Cl)cc1: 1
COc1ccc(C(SCCO)(c2ccc(OC)cc2)c2ccc(OC)cc2)cc1: -1
CCN(CCO)CC1COc2ccccc2O1 (configuration not stated): -1
NCOC(=O)Cc1ccc(Br)cc1: -1

# input What was the test verdict on CCN(CC)C(=O)c1cc([N+](=O)[O-])c(=O)n2c1[nH]c1ccccc12 ?
# output -1

---

Property: GI50; scope: individual compounds
tested on: M14; experiment: NCI tumour cell line growth inhibition, 48 h
Calls of active or inactive are those of the source. Rule as the data show it: active = GI50 up to about 1.1 µM and inactive = higher.

CCOC(=O)c1nc2cc(N3CCOCC3)c(F)cc2[nH]c1=O: > 100 µM (inactive)

# input Return reported GI50; argument: CC1OC(OC2C(O[C@H]3CC[C@@]4(C)C(=CC[C@H]5[C@@H]6C[C@@H]7O[C@]8(CC[C@@H](CO)CO8)[C@@H](C)[C@@H]7[C@@]6(C)CC[C@@H]54)C3)OC(CO)C(O)C2OC2OC(CO)C(O)C(O)C2O)C(O)C(O)C1O (stereo not given in full)
# output 2.04 µM (inactive)

---

Property: GI50; scope: individual compounds
test system: CAKI-1; assay: NCI tumour cell line growth inhibition, 48 h
Active and inactive are the calls of the source. No stated cut-off is given here; in the data, active = GI50 up to about 1.1 µM and inactive = higher.

Recorded GI50, per entry:
O=S(=O)(Nc1nc2ccccc2nc1Nc1ccc2ccccc2c1)c1ccccc1: 27.4 µM (inactive)
O=C1NC2(CCNCC2)Oc2ccccc21: > 100 µM (inactive)
Cc1ccc(N(C)S(=O)(=O)c2ccccc2)cc1: > 100 µM (inactive)
O=S(=O)(NC1OCCCC1I)c1ccccc1 (centres undefined): > 100 µM (inactive)

# input Return reported GI50; argument: N#CC(C(=O)C(=O)Nc1ccc(Cl)c(Cl)c1)c1ccc(Cl)cc1 (centres undefined)
# output > 100 µM (inactive)

# input Return reported GI50; argument: O=c1n(CCCN2CCN(c3cccc(Cl)c3)CC2)nc2n1-c1ccc3ccccc3c1SC2
# output > 100 µM (inactive)
